Source of measurements: ChEMBL document CHEMBL4673302

- Tested on: K562
- Assay overview: Anticancer activity against human K562 cells assessed as cell growth inhibition measured after 48 hrs by sulforhodamine B assay
- Type: functional
- Condition notes: 48 h
Below, each entry is listed with its recorded GI50.

Data request: Consider the molecule shown here: `CCOC(=O)c1nn(-c2ccc(Cl)cc2)c(-c2ccc(OC)cc2)c1CNC(C)(C)C` What is its recorded GI50?
Data returned: > 524 µM

Data request: Consider the molecule shown here: `CCOC(=O)c1nn(-c2ccccc2)c(-c2ccc(Cl)cc2)c1CNC(C)(C)C` What is its recorded GI50?
Data returned: > 559 µM

Further cases:
Data request: Consider the molecule shown here: `CCOC(=O)c1nn(-c2ccc(Cl)cc2)c(-c2ccc(Br)cc2)c1CNC(C)(C)C` What is its recorded GI50?
Data returned: > 476 µM
